# assayed_system: ClpB NBD1-M (Thermus thermophilus, UniProt Q9RA63, R323A)
# Construct: expressed in E. coli BL21 (DE3) RIL; monomer/dimer equilibrium for the arginine mutants
# Sequence (Q9RA63 141-534 R323A): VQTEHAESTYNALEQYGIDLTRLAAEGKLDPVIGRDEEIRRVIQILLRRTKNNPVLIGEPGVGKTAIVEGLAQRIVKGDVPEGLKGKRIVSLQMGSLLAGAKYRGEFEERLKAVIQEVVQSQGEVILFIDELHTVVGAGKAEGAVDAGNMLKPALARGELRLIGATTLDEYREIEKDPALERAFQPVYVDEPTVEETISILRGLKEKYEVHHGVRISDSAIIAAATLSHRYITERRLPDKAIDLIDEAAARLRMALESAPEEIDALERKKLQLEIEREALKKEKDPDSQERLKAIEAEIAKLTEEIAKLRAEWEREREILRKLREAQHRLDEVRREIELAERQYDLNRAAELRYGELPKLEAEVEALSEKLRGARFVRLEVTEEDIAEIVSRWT
# measurement_protocol: stopped-flow FRET kinetics (koff/kon)
# Type: binding
experimental_readout: Kd (µM)
Give the value in µM but do not write µM after it.

Kd of CNc1ccccc1C(=O)O[C@H]1C[C@H](n2cnc3c(N)ncnc32)O[C@@H]1COP(=O)(O)OP(=O)(O)O , assay on ClpB NBD1-M (Thermus thermophilus, UniProt Q9RA63, R323A), is 6.7

* * *

# assayed_system: ClpB NBD1-M dimer with P221C/M394C disulfide crosslink (Thermus thermophilus, UniProt Q9RA63, P221C/M394C)
# Construct: NBD1-M (residues 141-534) covalent dimer linked by intermolecular disulfide between P221C of one subunit and M394C of the other; expressed in E. coli BL21 (DE3) RIL; one cross-linked and one free site; associates to tetramers with ATP
# Sequence (Q9RA63 141-534 M394C): as the sequence (Q9RA63 141-534 R323A) above, with A183R, M254C counted along it
# Sequence (Q9RA63 141-534 P221C): as the sequence (Q9RA63 141-534 R323A) above, with P81C, A183R counted along it
# measurement_protocol: fluorescence displacement titration against MANT-dADP
# Assay type: binding
# reported_conditions: 2 µM protein; 50 mM Tris/HCl pH 7.5, 50 mM KCl, 5 mM MgCl2, 2 mM EDTA, 25 °C; read-out: KD(ADP)
experimental_readout: Kd (nM)
Give the value in nM but do not write nM after it.

Recorded result, Nc1ncnc2c1ncn2[C@@H]1O[C@H](COP(=O)(O)OP(=O)(O)O)[C@@H](O)[C@H]1O , Kd: 1300
